B1: MEF2-activating motif and SAP domain-containing transcriptional regulator, residues 170 to 204; numbered along this chain, Q6ZN01 (parent)
chain: LKLEELTVSELRQQLRLRGLPVSGTKSMLLERMRG

- Variants of: B1
- protocol-summary: abundance fitness (aPCA) (normalised: wild type 0, dead -1); higher = more abundant; growth selection in yeast, the domain comes from the species named
- stated-conditions: Homo sapiens
Kindly state abundance fitness for each of the entries shown.
Give bare numbers.

Known results for variants:
Fill in: abundance fitness of Q14F is ___ -0.401

Can you handle R18M next? 0.126

Quick request: abundance fitness for each listed item, please.
1. L3R
2. S27D

1. -0.416
2. 0.069

Quick request: abundance fitness for each listed item, please.
1. S9V
2. E4P
3. R18V
4. S23E
5. E10F

-0.121
-0.394
-0.128
0.025
-0.895

Quick request: abundance fitness for each listed item, please.
1. L20M
2. S9Q
3. L11C
4. L30E
5. L29M
6. R16F
7. K26Q
8. L17F

1: -0.005; 2: 0.164; 3: -1.03; 4: -0.251; 5: -0.338; 6: -0.086; 7: -0.221; 8: -0.271

Quick request: abundance fitness for each listed item, please.
1. Q13S
2. L17E
3. L29Y
4. R12K
5. V22R
6. M33F
7. R34F

[-0.203, -0.089, -0.469, -0.072, -0.375, -0.516, -0.516]

Quick request: abundance fitness for each listed item, please.
1. Q14A
2. S27Q
3. R12M
4. L20T

[0.135, 0.38, -0.32, -0.879]

Quick request: abundance fitness for each listed item, please.
1. Q14H
2. P21F
3. L1S
4. L17W
5. L6C
6. L11S

1: -0.192; 2: -1.08; 3: -0.12; 4: -0.307; 5: -0.299; 6: -0.542

// data source = the Human Domainome abundance scans (Beltran et al. 2025)
